Values were extracted from patent US20230416852A1.

Documented EC50 across a set of compounds
# Assay system: Vif function of inhibiting A3G CDA (Human immunodeficiency virus type 1 group M subtype B, UniProt P69723)
# Sequence (P69723 whole entry): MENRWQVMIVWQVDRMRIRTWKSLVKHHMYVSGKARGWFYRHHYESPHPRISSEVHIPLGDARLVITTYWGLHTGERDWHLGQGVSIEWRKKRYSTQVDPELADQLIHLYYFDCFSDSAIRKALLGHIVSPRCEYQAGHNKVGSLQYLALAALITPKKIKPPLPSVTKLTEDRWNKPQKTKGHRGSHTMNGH
# Assay notes: biochemical
Readout: EC50

# Compound, Readout, Recorded value
data = [
    ("C=CC1=C(C(=O)O)N2C(=O)[C@@H](NC(=O)/C(=N\\OCC(=O)O)c3csc(N)n3)[C@H]2SC1 [Compound I, cefixime, reference compound]", "EC50", "> 500 µM"),
    ("COc1cc(-c2ccc(Nc3ccccc3C(=O)O)c(OC)c2)ccc1Nc1ccccc1C(=O)O [Compound II, redoxal]", "EC50", "< 12.5 µM"),
]
